Data origin, for the record: patent US10934274B2

Record set of Kd for target or system Mer (Homo sapiens, UniProt Q12866).

Consider the reported Kd for these compounds:
compound	Kd
CCOc1cn(-c2cnc(N)nc2)nc1C(=O)Nc1ccc(Oc2ccnc3cc(OC)c(OC)cc23)c(Cl)c1	< 100 nM
CCOc1cn(CCC(=O)O)nc1C(=O)Nc1ccc(Oc2ccnc3cc(OC)c(OC)cc23)cn1	100 to 1000 nM
CCOc1cnn(-c2ccc(C(F)(F)F)cc2C)c1C(=O)Nc1ccc(Oc2ccnc3cc(OC)c(OC)cc23)cn1	100 to 1000 nM
COc1cc2nccc(Oc3ccc(NC(=O)c4nn(-c5cccnc5)cc4OCC4CC4)nc3)c2cc1OC(F)(F)F	100 to 1000 nM
CCOc1cnn(C2CCCN(C)C2)c1C(=O)Nc1ccc(Oc2ccnc3cc(OC)c(OC)cc23)cc1F (stereo not shown)	100 to 1000 nM
CCOc1cn(C(C)CC#N)nc1C(=O)Nc1ccc(Oc2ccnc3cc(OC)c(OC)cc23)cn1 (stereo not shown)	< 100 nM

Now for a further compound.
Q) Give Kd for CCOc1c(C(=O)Nc2ccc(Oc3ccnc4cc(OC)c(OC)cc34)cn2)nn(-c2cccnc2)c1C
A) < 100 nM

---

Record set of Kd for target or system TYRO3 (Homo sapiens).

compound	Kd
CCOc1cn(-c2cncc(C#N)n2)nc1C(=O)Nc1ccc(Oc2ccnc3cc(OC)c(OC)cc23)cn1	≥ 1000 nM
CCOc1cn(-c2nccnc2Cl)nc1C(=O)Nc1ccc(Oc2ccnc3cc(OC)c(OC)cc23)cc1F	< 100 nM
CCOc1cn(-c2ccc(F)cc2C)nc1C(=O)Nc1ccc(Oc2ccnc3cc(OC)c(OC)cc23)c(NC(C)C)c1	100 to 1000 nM

Now for a further compound.
Q) Look up and report Kd, with TYRO3 (Homo sapiens) as system, for CCOc1cn(CCO)nc1C(=O)Nc1ccc(Oc2ccnc3cc(OC)c(OC)cc23)cn1
A) 100 to 1000 nM

---

Attribute: Kd
# assay.system: TYRO3 (Homo sapiens, UniProt Q06418)
# Sequence (Q06418 41-890): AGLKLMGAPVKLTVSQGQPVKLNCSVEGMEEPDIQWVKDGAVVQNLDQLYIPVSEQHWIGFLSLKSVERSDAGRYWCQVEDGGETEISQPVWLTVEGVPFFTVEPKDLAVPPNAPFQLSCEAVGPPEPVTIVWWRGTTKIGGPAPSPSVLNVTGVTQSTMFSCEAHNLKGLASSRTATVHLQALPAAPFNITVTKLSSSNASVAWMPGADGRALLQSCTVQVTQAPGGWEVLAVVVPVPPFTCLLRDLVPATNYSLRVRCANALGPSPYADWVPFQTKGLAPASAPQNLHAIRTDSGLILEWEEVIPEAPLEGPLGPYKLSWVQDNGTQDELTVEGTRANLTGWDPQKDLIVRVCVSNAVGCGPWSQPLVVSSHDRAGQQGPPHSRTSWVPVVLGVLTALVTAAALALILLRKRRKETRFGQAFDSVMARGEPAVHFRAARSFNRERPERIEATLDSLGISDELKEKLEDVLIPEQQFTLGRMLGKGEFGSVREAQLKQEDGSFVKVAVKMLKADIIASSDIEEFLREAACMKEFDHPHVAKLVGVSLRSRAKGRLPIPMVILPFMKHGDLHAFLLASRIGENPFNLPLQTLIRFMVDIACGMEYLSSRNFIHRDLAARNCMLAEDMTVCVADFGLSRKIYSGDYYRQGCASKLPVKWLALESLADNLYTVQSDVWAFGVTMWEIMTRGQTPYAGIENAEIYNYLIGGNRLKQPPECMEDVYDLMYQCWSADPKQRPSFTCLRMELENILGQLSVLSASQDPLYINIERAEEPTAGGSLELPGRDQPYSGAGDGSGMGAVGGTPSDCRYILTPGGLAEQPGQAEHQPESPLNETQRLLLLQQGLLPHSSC

Consider the reported Kd for these compounds:
compound	assay.system	reported
CCOc1cn(-c2cncnc2N2CCCC2)nc1C(=O)Nc1ccc(Oc2ccnc3cc(OC)c(OC)cc23)cn1	TYRO3 (Homo sapiens, UniProt Q06418)	≥ 1000 nM
CCOc1cn(-c2cnccc2C(F)(F)F)nc1C(=O)Nc1ccc(Oc2ccnc3cc(OC)c(OC)cc23)cn1	TYRO3 (Homo sapiens, UniProt Q06418)	< 100 nM
CCOc1c(C(=O)Nc2ccc(Oc3ccnc4cc(OC)c(OC)cc34)cn2)nn(-c2cccnc2)c1C	TYRO3 (Homo sapiens, UniProt Q06418)	< 100 nM
CCOc1cn(CC2CCO2)nc1C(=O)Nc1ccc(Oc2ccnc3cc(OC)c(OC)cc23)cn1 (stereo not shown)	TYRO3 (Homo sapiens, UniProt Q06418)	< 100 nM

Q) Give Kd for CCOc1cn(-c2c(C)cc(OC)cc2C)nc1C(=O)Nc1ccc(Oc2ccnc3cc(OC)c(OC)cc23)cn1
A) < 100 nM

Q) Give Kd for CCOc1cn(-c2cnc(C#N)cn2)nc1C(=O)Nc1ccc(Oc2ccnc3cc(OC)c(OC)cc23)cn1
A) ≥ 1000 nM

---

# assay.system: TYRO3 (Homo sapiens, UniProt Q06418)
# Sequence (Q06418 41-890): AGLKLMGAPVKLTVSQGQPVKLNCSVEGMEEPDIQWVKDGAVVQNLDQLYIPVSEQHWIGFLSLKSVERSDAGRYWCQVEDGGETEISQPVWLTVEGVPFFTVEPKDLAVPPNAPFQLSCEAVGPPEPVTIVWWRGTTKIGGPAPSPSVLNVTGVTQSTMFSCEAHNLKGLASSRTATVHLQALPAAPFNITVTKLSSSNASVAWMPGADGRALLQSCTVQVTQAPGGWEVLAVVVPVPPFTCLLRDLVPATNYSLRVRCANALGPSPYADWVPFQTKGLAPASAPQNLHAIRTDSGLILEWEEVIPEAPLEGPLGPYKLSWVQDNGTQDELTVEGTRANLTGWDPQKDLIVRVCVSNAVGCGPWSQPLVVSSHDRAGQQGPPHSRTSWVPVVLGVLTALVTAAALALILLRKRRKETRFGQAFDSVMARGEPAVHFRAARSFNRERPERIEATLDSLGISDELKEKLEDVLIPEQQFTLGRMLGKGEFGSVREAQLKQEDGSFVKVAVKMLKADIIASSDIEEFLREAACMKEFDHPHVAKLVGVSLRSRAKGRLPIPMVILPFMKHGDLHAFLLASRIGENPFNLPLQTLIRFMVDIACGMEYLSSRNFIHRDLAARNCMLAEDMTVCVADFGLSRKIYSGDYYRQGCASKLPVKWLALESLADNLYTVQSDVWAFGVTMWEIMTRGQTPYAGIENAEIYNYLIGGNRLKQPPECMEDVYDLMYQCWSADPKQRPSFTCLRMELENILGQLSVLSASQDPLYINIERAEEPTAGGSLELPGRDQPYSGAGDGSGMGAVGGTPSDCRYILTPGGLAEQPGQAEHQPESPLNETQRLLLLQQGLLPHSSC
Attribute: Kd

Consider the reported Kd for these compounds:
CCOc1cnn(-c2cnc(N)nc2)c1C(=O)Nc1ccc(Oc2ccnc3cc(OC(C)C)c(OC)cc23)cc1F ≥ 1000 nM
CCOc1cn(-c2cnc(N)nc2)nc1C(=O)Nc1ccc(Oc2ccnc3cc(OC)c(OC)cc23)c(F)c1 < 100 nM
CCOc1cn(-c2cnc(C(F)(F)F)nc2)nc1C(=O)Nc1ccc(Oc2ccnc3cc(OC)c(OC)cc23)cn1 100 to 1000 nM

Q) Give Kd for CCOc1cn(-c2ccsc2)nc1C(=O)Nc1ccc(Oc2ccnc3cc(OC)c(OC)cc23)cn1
A) < 100 nM
